study_system: Recombinant A/South Carolina/1/1918 virus HA (influenza A/South Carolina/1/1918 …, UniProt Q9WFX3 18-520)
Sequence (Q9WFX3 18-520 limits assumed): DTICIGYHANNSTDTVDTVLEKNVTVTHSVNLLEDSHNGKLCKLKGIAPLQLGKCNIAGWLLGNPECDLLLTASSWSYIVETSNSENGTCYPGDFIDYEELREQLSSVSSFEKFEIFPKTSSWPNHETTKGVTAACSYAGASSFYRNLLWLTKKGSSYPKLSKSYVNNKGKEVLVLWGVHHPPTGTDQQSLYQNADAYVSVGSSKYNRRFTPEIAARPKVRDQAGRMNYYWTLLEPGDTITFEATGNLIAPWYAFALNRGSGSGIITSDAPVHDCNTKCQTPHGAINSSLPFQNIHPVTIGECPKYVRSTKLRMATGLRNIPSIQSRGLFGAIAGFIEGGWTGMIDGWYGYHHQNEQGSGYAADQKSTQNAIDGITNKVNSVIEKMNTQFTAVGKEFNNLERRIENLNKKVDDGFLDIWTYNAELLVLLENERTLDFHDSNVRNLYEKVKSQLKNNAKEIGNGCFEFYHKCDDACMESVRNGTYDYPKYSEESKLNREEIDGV
Attribute: kon
measure: kon (M⁻¹ s⁻¹)

[[record]]
binder = "mAb 1F1 (antibody, V domains shown) VH: EVQLVQSGGGVVQPRRSLRLSCAASGFTFSSYAMHWVRQAPGKGLEWVAVISYDGRNKYYADSVKGRFTVSRDNSKNTLYLQMNSLRAEDTSVYYCARELLMDYYDHIGYSPGPTWGQGTLVTVSS VL: QPVLTQPPSASGSPGQRVTISCSGSSSNIGSYTVNWYQQLPGTAPKLLIYSLNQRPSGVPDRFSGSKSGTSASLAISGLQSEDEAVYYCAAWDDSLSAHVVFGGGTKLTVLG"
quantitative_readout = 31000

[[record]]
binder = "mAb 4D20 (antibody, V domains shown) VH: EVQLVESGPVLVKPTETLTVTCTVSGFSVDNDRMGVSWIRQPPGKALEWLAHIFSNDEKSYSTSLRSRLTISKDTSKRQVVLSMTDMDPVDTATYYCARAPSEYAAMDVWGQGTMVTVS VL: SYVLTQPPSVSVAPGETATVTCGGNNIGSKSVHWYQQKPGQAPVVVIYYDGDRPSGIPERFSGSNSGDTATLTISRVEAGDEADYYCLVWDYTSVHYVFGTGTKVTVLG"
quantitative_readout = 170000

[[record]]
binder = "mAb 2B12 (antibody, V domains shown) VH: EVQLQESGPGLVKPSQTLSLTCNVSGGSITGDYKWSWIRQPPGKGLEWIGHIHSTGTTYYNPSLRSRITISMDTSKNNLSLRLTSVTAADTAVYYCASHTLTSGHYPRDFDFWGQGTLVTVSS VL: SYVLTQPPSVSGTPGQRVIISCSGYSSNIGSNTVNWYQQFPGTAPRLLIYANNQRPPGVPDRFSGSKSGTSASLAISGLQSDDESDYYCAAWDDSLNGHWVFGGGTKLTVLG"
quantitative_readout = 18000

[[record]]
binder = "mAb 1I20 (antibody, V domains shown) VH: EVQLVESGGGVVQPGGSLRLSCIASAFNLGIFGMHWVRQAPGKGLEWVAFIRYDGGKTFYADSVKGRFTISRDNSKNTLYLQMNSLRTEDTALYYCARDATADYYGPGSYPNWLDPWGQGTLVTVS VL: DIRLTQSPATLSVSPGERATLSCRASHSVSRNLAWYQQKPGRAPRLLVYDTSSRATGIPARFSGSGSGTEFTLTISSLQSEDFAVYYCQQYNNWPRTFGQGTKVDIK"
quantitative_readout = 290000

